Value source: paper PMC6219549

# TARGET: Cragi-CCKR2 (Magallana gigas)
# Sequence (A0A345BJM9 1-406): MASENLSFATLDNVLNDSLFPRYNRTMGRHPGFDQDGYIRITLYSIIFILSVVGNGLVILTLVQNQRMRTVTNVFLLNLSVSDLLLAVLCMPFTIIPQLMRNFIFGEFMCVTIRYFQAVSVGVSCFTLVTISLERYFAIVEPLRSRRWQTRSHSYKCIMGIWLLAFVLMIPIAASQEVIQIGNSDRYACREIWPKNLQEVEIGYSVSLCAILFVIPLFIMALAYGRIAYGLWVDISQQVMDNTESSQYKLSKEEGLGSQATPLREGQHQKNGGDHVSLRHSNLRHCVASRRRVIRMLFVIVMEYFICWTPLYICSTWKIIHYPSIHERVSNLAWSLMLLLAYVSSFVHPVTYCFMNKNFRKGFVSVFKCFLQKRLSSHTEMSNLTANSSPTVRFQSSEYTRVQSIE
# EXPERIMENT NOTES: Calcium fluorescence (mobilization) assay, Cragi-CCKR2 in HEK293T cells
# Assay type: cell-based, Crassostrea gigas
# TEST CONDITIONS: HEK293T transiently transfected with Cragi-CCKR2, Fluo-4 calcium response, 37 °C; values given in M; read-out: EC50 for receptor activation, Cragi-CCKR2
Where no end group is shown, it is not given here.
PARAMETER MEASURED: EC50

Form field EC50, entry FDYGGGRW-NH2 [Cragi-CCK2] : > 100 µM

====

# TARGET: Cragi-CCKR1 (Magallana gigas, UniProt A0A345BJM8)
# Sequence (A0A345BJM8 1-408): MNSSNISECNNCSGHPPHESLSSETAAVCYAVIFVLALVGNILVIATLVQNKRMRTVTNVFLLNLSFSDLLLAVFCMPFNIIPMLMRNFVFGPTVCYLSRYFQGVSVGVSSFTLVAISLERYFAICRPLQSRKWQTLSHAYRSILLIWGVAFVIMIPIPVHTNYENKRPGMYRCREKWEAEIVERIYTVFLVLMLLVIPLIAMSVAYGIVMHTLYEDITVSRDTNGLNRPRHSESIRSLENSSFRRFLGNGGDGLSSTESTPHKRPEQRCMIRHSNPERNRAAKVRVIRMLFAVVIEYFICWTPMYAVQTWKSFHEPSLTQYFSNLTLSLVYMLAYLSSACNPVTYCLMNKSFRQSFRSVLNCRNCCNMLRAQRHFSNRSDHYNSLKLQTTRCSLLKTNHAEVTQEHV
# EXPERIMENT NOTES: Calcium fluorescence (mobilization) assay, Cragi-CCKR1 in HEK293T cells
# Assay type: cell-based, Crassostrea gigas
# TEST CONDITIONS: HEK293T transiently transfected with Cragi-CCKR1, Fluo-4 calcium response, 37 °C; concentration-response in quadruplicate, at least three independent experiments; read-out: EC50 for receptor activation, Cragi-CCKR1
Where a SMILES comes first, the peptide text is derived from it. [ ]: non-standard residue; d: D form. sY = N[C@@H](Cc1ccc(OS(=O)(=O)O)cc1)C(=O)O; pGlu = O=C1CC[C@@H](C(=O)O)N1
Assign EC50 to each entry below.
One number for each entry, in nM.

Completed entries (count: 3):
- MOLECULE: "CC(C)C[C@H](NC(=O)CNC(=O)[C@H](Cc1ccc(O)cc1)NC(=O)[C@H](CC(=O)O)NC(=O)[C@H](Cc1ccc(OS(=O)(=O)O)cc1)NC(=O)[C@H](CC(=O)O)NC(=O)[C@H](Cc1c[nH]c2ccccc12)NC(=O)[C@H](C)NC(=O)CNC(=O)[C@@H]1CCC(=O)N1)C(=O)NCC(=O)NCC(=O)NCC(=O)N[C@@H](CCCNC(=N)N)C(=O)N[C@@H](Cc1ccccc1)C(N)=O [[Y^6S] Cragi-CCK1] ([pGlu]GAWD[sY]DYGLGGGRF-NH2)"
  READING UNIT: "nM"
  EC50: 16.4
- MOLECULE: "CC(C)C[C@H](NC(=O)CNC(=O)[C@H](Cc1ccc(O)cc1)NC(=O)[C@H](CC(=O)O)NC(=O)[C@H](Cc1ccc(O)cc1)NC(=O)[C@H](CC(=O)O)NC(=O)[C@H](Cc1c[nH]c2ccccc12)NC(=O)[C@H](C)NC(=O)CNC(=O)[C@@H]1CCC(=O)N1)C(=O)NCC(=O)NCC(=O)NCC(=O)N[C@@H](CCCNC(=N)N)C(=O)N[C@@H](Cc1ccccc1)C(N)=O [Cragi-CCK1] ([pGlu]GAWDYDYGLGGGRF-NH2)"
  READING UNIT: "nM"
  EC50: 195
- MOLECULE: "CC(C)C[C@H](NC(=O)CNC(=O)[C@H](Cc1ccc(OS(=O)(=O)O)cc1)NC(=O)[C@H](CC(=O)O)NC(=O)[C@H](Cc1ccc(OS(=O)(=O)O)cc1)NC(=O)[C@H](CC(=O)O)NC(=O)[C@H](Cc1c[nH]c2ccccc12)NC(=O)[C@H](C)NC(=O)CNC(=O)[C@@H]1CCC(=O)N1)C(=O)NCC(=O)NCC(=O)NCC(=O)N[C@@H](CCCNC(=N)N)C(=O)N[C@@H](Cc1ccccc1)C(N)=O [[Y^6S-Y^8S] Cragi-CCK1] ([pGlu]GAWD[sY]D[sY]GLGGGRF-NH2)"
  READING UNIT: "nM"
  EC50: 1.1

Proceed to the following item.
Form field EC50, entry CC(C)C[C@H](NC(=O)CNC(=O)[C@H](Cc1ccc(OS(=O)(=O)O)cc1)NC(=O)[C@H](CC(=O)O)NC(=O)[C@H](Cc1ccc(O)cc1)NC(=O)[C@H](CC(=O)O)NC(=O)[C@H](Cc1c[nH]c2ccccc12)NC(=O)[C@H](C)NC(=O)CNC(=O)[C@@H]1CCC(=O)N1)C(=O)NCC(=O)NCC(=O)NCC(=O)N[C@@H](CCCNC(=N)N)C(=O)N[C@@H](Cc1ccccc1)C(N)=O [[Y^8S] Cragi-CCK1] ([pGlu]GAWDYD[sY]GLGGGRF-NH2) : 2.29
